Taken from PubChem BioAssay (NCI).

System: T-47D breast
experiment description: NCI tumour cell line growth inhibition, 48 h
observable: GI50

Problem: I'd like to know its GI50. The molecule in question is "CO/N=C(\COc1ccc2oc(-c3ccccc3)cc(=O)c2c1)c1ccc(F)cc1"
Result: 21.5 µM

Problem: Reported GI50 for "Cc1ccc(C(=O)NC2CC2)cc1-c1ccc2[nH]ncc2c1" : what is it?
Result: > 25 µM

Problem: Value lookup for GI50; key = "O=C([O-])CC(=O)[O-].[NH-][C@@H]1CCCC[C@H]1[NH-].[Pt+4]"
Result: 8.38 µM

Problem: Quick one: GI50 of "CC(C)c1ccc(NC(=O)Cc2ccc(Nc3ncnc4cc(-c5cnn(CCN(C)C)c5)ccc34)cc2)cc1" ?
Result: 1.38 µM
